From: patent US20160145343A1

The entries below are paired with their reported percentage of APC+ stained cells.
- experimental_target: T1, MUC1 on MUC1+ human cancer cell lines and tumor tissue (abnormal, e.g. hypoglycosylated, tumor MUC1) (human, UniProt P15941 24-1255)
- T1 construct: the MUC1 of each cell line or tissue (number of repeats, glycoform) is not specified; The cell line or tissue is named under assay; also called MUC1 on HPAF, MCF-7, BT-20, SKBR-3, PANC-1, MS+MUC1 cells; MUC1 on colon and pancreatic tumor samples
- run_description: flow cytometry, BT20 cells
Please give a number only; it is taken to be in %.

These solved cases illustrate the format of a correct answer.
# binder, percentage of APC+ stained cells, %
data = [
    ("M20 (antibody, human IgG1, kappa, V domains shown, Human IgG) VH: EVQLVESGGGLVQPGGSLRLSCAASGFTFSSYWMHWVRQAPGKGLVWVSHINSDGSSTSYADSVKGRFTISRDNAKNTLYLQMNSLRAEDTAVYYCARELADWGQGTLVTVSS VL: DVVMTQSPLSLPVTLGQPASISCRSSQSLVYSDGNTYLNWFQQRPGQSPRRLIYQVSNRDSGVPDRFSGSGSGTDFTLKIGRVEAEDVGVYFCMQGTHWPWTFGQGTKVEIKR", 9.86),
    ("M3 (antibody, human IgG1, lambda, V domains shown, Human IgG) VH: QLQLQESGPGLVKPSETLSLTCTVSGGSISSSSYYWGWIRQPPGKGLEWIGSIYYSGSTHYNPSLKSRVTISVDTSKNQFSLKLRSVTAADTAVYYCARGVVEVRGNHYYYYYMDVWGKGTTVTVSS VL: QSVLTQPPSVSGAPGQRVTISCTGSSSNIGAGYDVHWYQQLPGTAPKLLIYGNSYRPSGVPDRFSGSKSGTSASLAITGLQAEDEADYYCQSYDSSLSGSGVFGGGTKLTVLG", 14.8),
    ("M22 (antibody, human IgG1, kappa, V domains shown, Human IgG) VH: EVQLVESGGGLVQPGGSLRLSCAASGFTVSSNYMSWVRQAPGKGLEWVSVIYSGGTTYYADSVKGRFTISRHNSKNTLYLQMNSLRAEDTAVYYCARDHDPDYGGYYMDVWGKGTTVTVSS VL: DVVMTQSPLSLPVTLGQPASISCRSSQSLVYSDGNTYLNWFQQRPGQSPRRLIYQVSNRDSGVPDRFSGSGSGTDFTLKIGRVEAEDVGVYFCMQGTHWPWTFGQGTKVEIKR", 3.39),
    ("M21 (antibody, human IgG1, kappa, V domains shown, Human IgG) VH: EVQLVESGGGLVQPGGSLRLSCAASGFTVSSNYMSWVRQAPGKGLEWVSVIYSGGSTYYADSVKGRFTISRDNSKNTLYLQMNSLRAEDTAVYYCARDQEHYFDGSGYYVDYWGQGTLVTVSS VL: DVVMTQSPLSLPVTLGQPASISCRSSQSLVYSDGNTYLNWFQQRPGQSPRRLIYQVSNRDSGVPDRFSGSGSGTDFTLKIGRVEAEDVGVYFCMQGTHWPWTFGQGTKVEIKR", 4.06),
]

Would you kindly look at the next entry?
Determine from records and report percentage of APC+ stained cells for M7 (antibody, human IgG1, kappa, V domains shown, Human IgG) VH: EVQLVESGGGLVQPGGSLRLSCAASGFTVSSNYMSWVRQAPGKGLEWVSVIYSGGSTYYADSVKGRFTISRDNSKNTLYLQMNSLRAEDTAVYYCARGSTNTYYYDSSGHPWGQGTMVTVSS VL: DIVMTQSPLSLPATPGEPASISCRSSQSLLHSNGYTYLDWYLQKPGQSPQVLIYLASNRASGVPDRFSGSGSGTNFTLKISRVEAEDVGLFYCMQALQTPQTFGQGTKLEIKR 12.2
